Listed below: OD 490/630 nm values for each entry.
# System Tested: T1, Ala mutant of TA0096, SEQ ID NO: 36
# T1 peptide: EENMDDQWMADEMEIGY
# Assay: ELISA, coated peptide

{"Binder": "A11 (antibody, V domains shown, Chicken variable regions in a mouse chimeric antibody (IgG1); also called anti-PAD4 antibody A11) VH: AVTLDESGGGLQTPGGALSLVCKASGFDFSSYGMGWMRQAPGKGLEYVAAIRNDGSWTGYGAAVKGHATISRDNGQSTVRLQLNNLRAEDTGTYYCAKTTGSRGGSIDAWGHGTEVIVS VL: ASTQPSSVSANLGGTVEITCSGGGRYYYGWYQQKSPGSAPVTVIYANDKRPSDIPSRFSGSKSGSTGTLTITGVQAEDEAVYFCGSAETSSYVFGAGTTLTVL", "OD 490/630 nm": 1.91}
{"Binder": "G9 (antibody, V domains shown, Chicken variable regions in a mouse chimeric antibody (IgG1); also called anti-PAD4 antibody G9) VH: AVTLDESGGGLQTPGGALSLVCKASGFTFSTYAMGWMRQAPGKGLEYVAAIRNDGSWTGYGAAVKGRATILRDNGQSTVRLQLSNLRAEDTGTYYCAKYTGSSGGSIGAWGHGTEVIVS VL: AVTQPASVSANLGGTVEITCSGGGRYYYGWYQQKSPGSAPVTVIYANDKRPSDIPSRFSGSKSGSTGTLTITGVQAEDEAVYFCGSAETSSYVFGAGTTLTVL", "OD 490/630 nm": 1.87}
{"Binder": "H7 (antibody, V domains shown, Chicken variable regions in a mouse chimeric antibody (IgG1); also called anti-PAD4 antibody H7) VH: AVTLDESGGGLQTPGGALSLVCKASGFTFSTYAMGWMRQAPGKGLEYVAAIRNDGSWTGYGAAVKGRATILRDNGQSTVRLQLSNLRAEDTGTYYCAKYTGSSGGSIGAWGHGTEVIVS VL: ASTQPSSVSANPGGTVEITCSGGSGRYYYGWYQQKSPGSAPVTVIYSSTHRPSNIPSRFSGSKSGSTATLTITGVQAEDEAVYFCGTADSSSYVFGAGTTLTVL", "OD 490/630 nm": 1.87}
{"Binder": "G6 (antibody, V domains shown, Chicken variable regions in a mouse chimeric antibody (IgG1); also called anti-PAD4 antibody G6) VH: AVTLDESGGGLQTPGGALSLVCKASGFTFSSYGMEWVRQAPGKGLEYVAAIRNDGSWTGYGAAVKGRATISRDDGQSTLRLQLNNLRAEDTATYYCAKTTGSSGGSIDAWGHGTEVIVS VL: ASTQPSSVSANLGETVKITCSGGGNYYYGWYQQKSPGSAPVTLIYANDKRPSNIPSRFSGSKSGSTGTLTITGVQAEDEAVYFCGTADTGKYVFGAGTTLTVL", "OD 490/630 nm": 1.85}
{"Binder": "E9 (antibody, V domains shown, Chicken variable regions in a mouse chimeric antibody (IgG1); also called anti-PAD4 antibody E9) VH: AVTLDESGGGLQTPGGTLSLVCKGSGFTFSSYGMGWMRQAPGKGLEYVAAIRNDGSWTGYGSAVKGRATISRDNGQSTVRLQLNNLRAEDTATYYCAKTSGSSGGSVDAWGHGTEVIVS VL: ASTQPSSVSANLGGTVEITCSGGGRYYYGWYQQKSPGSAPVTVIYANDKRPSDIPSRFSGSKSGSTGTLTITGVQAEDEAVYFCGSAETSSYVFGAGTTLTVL", "OD 490/630 nm": 1.9}
{"Binder": "G8 (antibody, V domains shown, Chicken variable regions in a mouse chimeric antibody (IgG1); also called anti-PAD4 antibody G8) VH: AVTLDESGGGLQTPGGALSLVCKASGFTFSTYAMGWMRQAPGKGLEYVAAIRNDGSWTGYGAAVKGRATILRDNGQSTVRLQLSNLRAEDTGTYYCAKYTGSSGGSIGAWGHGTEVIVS VL: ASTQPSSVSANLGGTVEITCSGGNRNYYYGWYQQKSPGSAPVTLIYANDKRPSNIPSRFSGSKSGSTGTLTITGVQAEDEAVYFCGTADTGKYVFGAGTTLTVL", "OD 490/630 nm": 1.92}

Entry source: patent US20180044434A1
